B1: TPD52L2 (parent)
chain: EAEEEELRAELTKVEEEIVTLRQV

# Variants of: B1
# method: protein stability index of a GFP-peptide fusion (GPS, HEK-293T) (PSI 1-6); higher = more stable;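 also: lentivirally expressed fusions sorted by FACS into six bins by GFP to DsRed ratio, PSI derived from sequencing read proportions per bin multiplied by bin number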
# recorded.conditions: c terminus: a fixed tail appended
variants and their reported protein stability index
Please give the numeric answer without any surrounding text.

Example entries begin here.
>  <mutation.code>
V14A

>  <experimental.readout>
protein stability index

>  <quantitative.readout>
4.05

$$$$
>  <mutation.code>
Q23I

>  <experimental.readout>
protein stability index

>  <quantitative.readout>
2.98

$$$$

Next variant, please.
protein stability index for E5Y ?
3.06
